test target: UniProt:P42866
Sequence (P42866 whole entry): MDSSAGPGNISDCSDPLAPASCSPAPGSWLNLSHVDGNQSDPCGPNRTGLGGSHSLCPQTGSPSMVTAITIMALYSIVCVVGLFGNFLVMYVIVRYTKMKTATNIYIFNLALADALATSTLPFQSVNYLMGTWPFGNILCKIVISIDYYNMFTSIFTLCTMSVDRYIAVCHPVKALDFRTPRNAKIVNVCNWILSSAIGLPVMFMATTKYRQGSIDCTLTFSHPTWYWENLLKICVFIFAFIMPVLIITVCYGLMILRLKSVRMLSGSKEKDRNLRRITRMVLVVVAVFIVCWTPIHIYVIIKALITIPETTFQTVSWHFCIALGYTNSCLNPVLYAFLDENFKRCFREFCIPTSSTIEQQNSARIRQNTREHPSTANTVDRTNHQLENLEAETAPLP
test details: Displacement of [3H]DAMGO from mu opioid receptor in mouse whole brain […] membrane
pKi: −log10 of the molar value.
Everything with pKi lower than 7 is Not satisfied; everything else, including exactly 7, is Satisfied.

Hi, just wondering whether "C=CCN1C[C@H](C)N([C@H](c2ccc(C(=O)N(CC)CC)cc2)c2cccc(OC)c2)C[C@H]1C" shows pKi of 7 or higher.
Not satisfied

Reported pKi at or above 7? "CC(C)CN1CC[C@@]23c4c5ccc(O)c4OCO[C@]46CC[C@@]2(O[C@H](C(=O)N4Cc2ccccc2)[C@H]63)[C@H]1C5"
Not satisfied

Quick check, pKi >= 7? "COc1ccc2c(c1O)[C@]13CCN(CC4CC4)[C@H](C2)[C@]12CC[C@]1(O)[C@H]3[C@H](O2)C(=O)N1Cc1ccccc1"
Satisfied

Does the compound "O=C1[C@H]2O[C@@]34CC[C@@]5(OCOc6c(O)ccc7c6[C@@]3(CCN(CC3CC3)[C@@H]4C7)[C@H]25)N1c1ccccc1" have recorded pKi that is 7 or more?
Satisfied

Is pKi at least 7? Consider "O=C1[C@H]2O[C@@]34CC[C@@]5(OCOc6c(O)ccc7c6[C@@]3(CCN(CCc3ccccc3)[C@@H]4C7)[C@H]25)N1Cc1ccccc1"
Satisfied
